Target system: Maltase-glucoamylase (Homo sapiens, UniProt O43451)
Sequence (O43451 whole entry): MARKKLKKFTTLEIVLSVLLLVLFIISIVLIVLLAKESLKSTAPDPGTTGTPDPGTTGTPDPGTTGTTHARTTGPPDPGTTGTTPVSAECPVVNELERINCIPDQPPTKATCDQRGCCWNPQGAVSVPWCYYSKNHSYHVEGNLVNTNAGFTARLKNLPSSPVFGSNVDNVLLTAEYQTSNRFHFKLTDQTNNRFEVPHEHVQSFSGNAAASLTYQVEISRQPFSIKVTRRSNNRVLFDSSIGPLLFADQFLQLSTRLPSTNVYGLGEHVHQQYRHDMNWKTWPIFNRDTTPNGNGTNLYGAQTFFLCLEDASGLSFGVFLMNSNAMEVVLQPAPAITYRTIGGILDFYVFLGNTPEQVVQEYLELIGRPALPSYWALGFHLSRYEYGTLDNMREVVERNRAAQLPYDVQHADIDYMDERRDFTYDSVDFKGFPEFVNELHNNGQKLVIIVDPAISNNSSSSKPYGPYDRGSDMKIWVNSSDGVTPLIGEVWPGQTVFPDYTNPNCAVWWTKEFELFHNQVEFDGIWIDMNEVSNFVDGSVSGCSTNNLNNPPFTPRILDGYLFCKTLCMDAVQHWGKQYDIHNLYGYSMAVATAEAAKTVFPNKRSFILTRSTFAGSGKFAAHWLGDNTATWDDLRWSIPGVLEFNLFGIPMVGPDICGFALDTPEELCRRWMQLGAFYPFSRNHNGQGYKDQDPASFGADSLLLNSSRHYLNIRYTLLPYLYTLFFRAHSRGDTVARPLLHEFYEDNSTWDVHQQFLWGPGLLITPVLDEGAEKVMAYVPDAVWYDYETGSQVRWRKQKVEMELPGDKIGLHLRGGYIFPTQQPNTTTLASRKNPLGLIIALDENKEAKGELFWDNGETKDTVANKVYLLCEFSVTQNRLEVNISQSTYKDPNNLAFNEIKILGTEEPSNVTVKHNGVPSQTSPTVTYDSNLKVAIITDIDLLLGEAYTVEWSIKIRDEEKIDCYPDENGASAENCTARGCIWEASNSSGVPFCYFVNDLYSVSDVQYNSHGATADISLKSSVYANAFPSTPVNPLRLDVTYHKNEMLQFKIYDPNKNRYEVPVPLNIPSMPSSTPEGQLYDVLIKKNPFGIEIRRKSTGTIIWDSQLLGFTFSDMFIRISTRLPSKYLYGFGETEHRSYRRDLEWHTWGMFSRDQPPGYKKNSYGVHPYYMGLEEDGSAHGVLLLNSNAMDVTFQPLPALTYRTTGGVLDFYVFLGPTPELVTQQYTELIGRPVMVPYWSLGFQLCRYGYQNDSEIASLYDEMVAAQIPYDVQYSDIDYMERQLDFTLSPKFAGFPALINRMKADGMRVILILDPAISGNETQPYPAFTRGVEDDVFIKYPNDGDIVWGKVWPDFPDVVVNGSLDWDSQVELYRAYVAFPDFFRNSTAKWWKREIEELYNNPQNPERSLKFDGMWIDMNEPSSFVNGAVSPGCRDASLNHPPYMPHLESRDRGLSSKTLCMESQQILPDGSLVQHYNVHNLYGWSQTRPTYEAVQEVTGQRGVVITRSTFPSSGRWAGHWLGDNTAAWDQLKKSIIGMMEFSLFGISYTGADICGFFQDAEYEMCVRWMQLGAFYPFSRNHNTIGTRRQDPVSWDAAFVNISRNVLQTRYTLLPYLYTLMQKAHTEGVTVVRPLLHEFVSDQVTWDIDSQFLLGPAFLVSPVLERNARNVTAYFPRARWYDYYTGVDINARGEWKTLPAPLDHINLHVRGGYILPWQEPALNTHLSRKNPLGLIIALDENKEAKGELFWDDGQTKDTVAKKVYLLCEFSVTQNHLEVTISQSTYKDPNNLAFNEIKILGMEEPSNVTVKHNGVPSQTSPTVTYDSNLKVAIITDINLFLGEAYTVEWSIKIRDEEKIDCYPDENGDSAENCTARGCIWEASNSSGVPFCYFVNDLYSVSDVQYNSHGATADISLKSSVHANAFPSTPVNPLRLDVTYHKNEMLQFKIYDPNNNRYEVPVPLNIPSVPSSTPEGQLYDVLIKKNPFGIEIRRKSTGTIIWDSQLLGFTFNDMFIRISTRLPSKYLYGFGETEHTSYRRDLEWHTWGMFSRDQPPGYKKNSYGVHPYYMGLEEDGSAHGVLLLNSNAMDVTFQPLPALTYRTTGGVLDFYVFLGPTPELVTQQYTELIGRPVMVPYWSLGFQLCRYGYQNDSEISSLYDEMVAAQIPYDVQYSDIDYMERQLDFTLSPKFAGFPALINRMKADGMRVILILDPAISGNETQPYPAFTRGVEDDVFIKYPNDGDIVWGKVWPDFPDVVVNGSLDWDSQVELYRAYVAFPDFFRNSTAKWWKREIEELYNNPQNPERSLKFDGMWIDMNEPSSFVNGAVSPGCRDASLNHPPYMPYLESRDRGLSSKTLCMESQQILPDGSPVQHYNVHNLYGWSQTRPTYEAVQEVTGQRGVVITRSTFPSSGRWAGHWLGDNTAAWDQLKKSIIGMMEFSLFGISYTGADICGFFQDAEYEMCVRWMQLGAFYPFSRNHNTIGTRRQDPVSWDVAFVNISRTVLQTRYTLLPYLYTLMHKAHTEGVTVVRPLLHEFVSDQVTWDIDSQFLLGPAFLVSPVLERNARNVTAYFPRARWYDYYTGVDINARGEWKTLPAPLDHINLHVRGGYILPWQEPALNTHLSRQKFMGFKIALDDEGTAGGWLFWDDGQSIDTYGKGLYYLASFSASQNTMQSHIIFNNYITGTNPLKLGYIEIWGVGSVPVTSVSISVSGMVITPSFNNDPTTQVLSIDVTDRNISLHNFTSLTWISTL
Test name: Mixed type inhibition of alpha-glucosidase (unknown origin) using p-nitrophenyl-alpha-D glucopyranoside as substrate incubated for 30 mins by Lineweaver-Burk plot analysis
Measurement type: Ki
Could you write the number and then its unit?

# Ki lookup, item `CC(C)=CCc1cc(-c2oc3cc(O)c(CC=C(C)C)c(O)c3c(=O)c2O)cc(O)c1O` 2.3 µM
